Below, each entry is listed with its recorded Ki.
# tested_system: TDP1 (Homo sapiens, UniProt Q9NUW8)
# Construct: made in house; host or cells: E. coli
# Sequence (Q9NUW8 whole entry): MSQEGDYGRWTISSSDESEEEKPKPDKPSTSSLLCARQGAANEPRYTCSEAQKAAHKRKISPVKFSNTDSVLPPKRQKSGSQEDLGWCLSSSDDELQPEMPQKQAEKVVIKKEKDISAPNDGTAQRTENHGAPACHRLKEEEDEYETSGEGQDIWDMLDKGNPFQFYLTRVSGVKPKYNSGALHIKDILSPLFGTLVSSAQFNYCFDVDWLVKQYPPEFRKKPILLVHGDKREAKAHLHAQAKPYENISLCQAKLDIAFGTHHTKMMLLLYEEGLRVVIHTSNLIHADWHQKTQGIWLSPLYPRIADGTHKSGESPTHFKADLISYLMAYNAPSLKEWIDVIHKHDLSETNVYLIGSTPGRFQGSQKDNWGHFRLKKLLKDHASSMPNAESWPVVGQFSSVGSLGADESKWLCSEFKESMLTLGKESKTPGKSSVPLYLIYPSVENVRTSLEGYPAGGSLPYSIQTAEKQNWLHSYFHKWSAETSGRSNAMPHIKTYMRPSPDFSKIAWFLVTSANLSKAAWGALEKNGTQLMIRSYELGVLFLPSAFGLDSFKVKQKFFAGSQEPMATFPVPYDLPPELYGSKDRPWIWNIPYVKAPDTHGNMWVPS
# test_details: Steady-state kinetic analysis of TDP1 reaction, single-stranded substrate
# Format: biochemical
# condition_description: Cornish-Bowden method, read-out: Inhibition constant, KI
measured_attribute: Ki (µM)

1) CC(C)C(=O)Nc1nc2c(ncn2[C@@H]2O[C@@H]3CO[Si](C(C)C)(C(C)C)O[Si](C(C)C)(C(C)C)O[C@H]3[C@H]2O[C@@H]2O[C@H](COC(=O)c3ccccc3)[C@@H](OC(=O)c3ccccc3)[C@H]2OC(=O)c2ccccc2)c(=O)[nH]1 : 0.2
2) CC(C)C(=O)Nc1nc2c(ncn2[C@@H]2O[C@H](CO)[C@@H](O)[C@H]2O[C@@H]2O[C@H](COC(=O)c3ccccc3)[C@@H](OC(=O)c3ccccc3)[C@H]2OC(=O)c2ccccc2)c(=O)[nH]1 : 1.7

====

# tested_system: TDP1 (Homo sapiens, UniProt Q9NUW8)
# Construct: made in house; host or cells: E. coli
# test_details: Steady-state kinetic analysis of TDP1 reaction, single-stranded substrate
# Assay type: biochemical
# Experimental: To determine the kinetic parameters: apparent maximum rate of enzymatic reaction (Vmax), Michaelis constant (KM), constant of inhibition (KI), and possible inhibition mechanism, steady-state kinetic experiments were carried out at five fixed concentrations of substrate with variation of inhibitor concentrations. […] Values of the inhibition constant (KI) were determined using Cornish–Bowden method. […]
measured_attribute: Type of inhibition

1. Cc1cn([C@@H]2O[C@@H]3CO[Si](C(C)C)(C(C)C)O[Si](C(C)C)(C(C)C)O[C@H]3[C@H]2O[C@@H]2O[C@H](COC(=O)c3ccccc3)[C@@H](OC(=O)c3ccccc3)[C@H]2OC(=O)c2ccccc2)c(=O)[nH]c1=O : Mixed
2. CC(C)C(=O)Nc1nc2c(ncn2[C@@H]2O[C@@H]3CO[Si](C(C)C)(C(C)C)O[Si](C(C)C)(C(C)C)O[C@H]3[C@H]2O[C@@H]2O[C@H](COC(=O)c3ccccc3)[C@@H](OC(=O)c3ccccc3)[C@H]2OC(=O)c2ccccc2)c(=O)[nH]1 : Mixed

====

Read-out record for TDP1 (Homo sapiens, UniProt Q9NUW8): pIC50
pIC50: −log10 of the molar value.
measured_attribute: pIC50

1) CC(C)(C)[Si](OC[C@H]1O[C@@H](n2ccc(NC(=O)c3ccccc3)nc2=O)C[C@@H]1O[C@@H]1O[C@H](COC(=O)c2ccccc2)[C@@H](OC(=O)c2ccccc2)[C@H]1OC(=O)c1ccccc1)(c1ccccc1)c1ccccc1 : 6.05
2) CC(C)[Si]1(C(C)C)OC[C@H]2O[C@@H](n3cnc4c(NC(=O)c5ccccc5)ncnc43)[C@H](O[C@@H]3O[C@H](COC(=O)c4ccccc4)[C@@H](OC(=O)c4ccccc4)[C@H]3OC(=O)c3ccccc3)[C@@H]2O[Si](C(C)C)(C(C)C)O1 : 5.89
3) O=C(Nc1ccn([C@@H]2O[C@H](CO)[C@@H](O)[C@H]2O[C@@H]2O[C@H](COC(=O)c3ccccc3)[C@@H](OC(=O)c3ccccc3)[C@H]2OC(=O)c2ccccc2)c(=O)n1)c1ccccc1 : 5.59
4) O=C(Nc1ccn([C@H]2C[C@H](O[C@@H]3O[C@H](COC(=O)c4ccccc4)[C@@H](OC(=O)c4ccccc4)[C@H]3OC(=O)c3ccccc3)[C@@H](CO)O2)c(=O)n1)c1ccccc1 : 5.82
5) Cc1cn([C@H]2C[C@H](O[C@@H]3O[C@H](COC(=O)c4ccccc4)[C@@H](OC(=O)c4ccccc4)[C@H]3OC(=O)c3ccccc3)[C@@H](CO[C@@H]3O[C@H](COC(=O)c4ccccc4)[C@@H](OC(=O)c4ccccc4)[C@H]3OC(=O)c3ccccc3)O2)c(=O)[nH]c1=O : 6.00

Reference source: paper PMC6136360
